Assay: chemical genetic growth profiling, strain panel (AID 1159580);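 also: tested at 20 µM; growth read once vehicle control cultures reached saturation at 30 °C; 1 = growth at the plate median or of vehicle wells; lower values mean less growth of the strain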
Conditions: S. cerevisiae deletion strains, growth OD, locus YDR477W, strain SNF1, active compounds read low
The campaign covered roughly 5,500 compounds. About 2,000 (36%) were called active. Inconclusive results (about 18%) are left out. The list shows a part of the results.
normalized growth less than 0.9 is Satisfied; normalized growth greater than or equal to 0.9 is Not satisfied.

Request: Strictly below 0.9: is that where normalized growth of "Fc1cccc(F)c1NC(=S)Nc1cc(C(F)(F)F)cc(C(F)(F)F)c1" sits?
Result: Not satisfied

Request: Strictly below 0.9: is that where normalized growth of "O=[N+]([O-])c1cc(Br)cnc1Sc1nnc(SCC2CC2)s1" sits?
Result: Satisfied

Request: Strictly below 0.9: is that where normalized growth of "FC(F)(F)c1cccc(NC(=S)Nc2ccccc2)c1" sits?
Result: Not satisfied

---

Test: chemical genetic growth profiling, strain panel (AID 1159580)
Settings: S. cerevisiae deletion strains, growth OD, locus YDR318W, strain mcm21, active compounds read low
Hit rate of the full screen: of about 5,500 compounds, about 2,000 (36%) were called active. Roughly 18% stayed inconclusive and do not appear here. This is one part of the list.
Give measured normalized growth for each item. Keep answers brief.

Notebook: COc1ccccc1OCCNCC(O)COc1cccc2[nH]c3ccccc3c12 (stereo not given) , normalized growth read as 1.01 (inactive)

Notebook: C[C@H]1[C@H]2CCC3C4CC=C5C[C@@H](N(C)C)CC[C@]5(C)C4CC[C@@]32CN1C (stereo not given in full) , normalized growth read as 0.957 (inactive)

Notebook: "CN[C@H](CC(=O)O)C(=O)O" , normalized growth read as 0.98 (inactive)

Notebook: CCCC1O[C@@H]2CC3C4CCC5=CC(=O)C=CC5(C)C4[C@@H](O)CC3(C)[C@]2(C(=O)CO)O1 (stereo not given in full) , normalized growth read as 1.03 (inactive)

Notebook: CN1C(CC(=O)c2ccccc2)CCCC1CC(O)c1ccccc1 (stereo not given) , normalized growth read as 0.994 (inactive)

---

Assay: chemical genetic growth profiling, strain panel (AID 1159580)
Settings: S. cerevisiae deletion strains, growth OD, strain TSCII, active compounds read low
Screen size: about 5,500 compounds; about 2,000 (36%) were called active. Roughly 18% stayed inconclusive and do not appear here. The list shows a part of the results.
Quantity: normalized growth
Returns: the value as a bare number; no unit string appended.

Notebook: "CCOC(=O)/C(=N/Nc1c(Cl)cccc1Cl)c1csc(N)n1" , normalized growth read as 0.963

Notebook: "O=C(Nc1ccc(N2CCOCC2)cc1)c1ccc(-n2cccn2)cc1" , normalized growth read as 0.982

Notebook: "FC(F)(F)c1cccc(NC(=S)Nc2csc(C(F)(F)F)c2-c2ccccc2)c1" , normalized growth read as 0.968

Notebook: "O=C(NCc1ccncc1)c1ccc(-n2cccn2)cc1" , normalized growth read as 0.981

Notebook: "Cn1c(CSCCOc2ccccc2)nnc1SCc1ccc(Cl)cc1Cl" , normalized growth read as 0.988

---

Give measured normalized growth for each item. Keep answers brief.
Test: chemical genetic growth profiling, strain panel (AID 1159580);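 also: tested at 20 µM; growth read once vehicle control cultures reached saturation at 30 °C; 1 = growth at the plate median or of vehicle wells; lower values mean less growth of the strain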
Conditions: S. cerevisiae deletion strains, growth OD, locus YDR477W, strain SNF1, active compounds read low
About 2,000 (36%) of roughly 5,500 compounds were called active. Roughly 18% stayed inconclusive and do not appear here. Some of the results follow.
Returns: the value as a bare number; no unit string appended.

Notebook: "CCCc1c(C(=O)NNc2cccc(Cl)c2)cnn1-c1ccccc1" , normalized growth read as 0.954

Notebook: CC(C)c1ccc(NCC(O)CSc2ccccc2)cc1 (stereo unspecified) , normalized growth read as 0.805

Notebook: "Cc1nn(Cc2ccc(C(=O)Sc3ccc(C(F)(F)F)cn3)o2)c(C)c1Br" , normalized growth read as 0.834

Notebook: "CCCc1c(C(=O)Sc2ccccn2)cnn1-c1ccc(Cl)cc1" , normalized growth read as 0.876

Notebook: "FC(F)(F)c1cccc(NC(=S)Nc2csc(C(F)(F)F)c2-c2ccccc2)c1" , normalized growth read as 0.991

Notebook: "N#CC(C#N)=C/C=C(/Sc1nc2ccccc2s1)c1ccc(Br)cc1" , normalized growth read as 0.144

---

Assay: chemical genetic growth profiling, strain panel (AID 1159580);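 also: tested at 20 µM; growth read once vehicle control cultures reached saturation at 30 °C; 1 = growth at the plate median or of vehicle wells; lower values mean less growth of the strain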
Details: S. cerevisiae deletion strains, growth OD, locus YLR342W, strain FKS1 (second series), active compounds read low
The whole screen tested about 5,500 compounds, of which about 2,000 (36%) were called active. Not shown: some 18% with an inconclusive outcome. The list shows a part of the results.
Give measured normalized growth for each item. Keep answers brief.
Returns: the value as a bare number; no unit string appended.

Notebook: CN(C)CCOC(C)(c1ccccc1)c1ccccn1 (stereo not drawn) , normalized growth read as 1.07

Notebook: CC(C)(C)NCC(O)c1ccccc1Cl (stereo not drawn) , normalized growth read as 0.967

Notebook: C=CC(C1=CC(=O)C(OC)=CC1=O)c1ccccc1 (stereo not drawn) , normalized growth read as 0.603

Notebook: CC(=O)OCC1(C)CCC2(C)CCC3(C)C4=CCc5c(cc(OC(C)=O)c(OC(C)=O)c5C)C4(C)CCC3(C)C2C1 (stereo not drawn) , normalized growth read as 1.01

Notebook: "CCN(CC)CCOc1ccc2c(c1)C(=O)c1cc(OCCN(CC)CC)ccc1-2" , normalized growth read as 1.01

Notebook: "CS(=O)(=O)CCCCN=C=S" , normalized growth read as 0.813

Notebook: "COc1ccc(C(Cl)=C(c2ccc(OC)cc2)c2ccc(OC)cc2)cc1" , normalized growth read as 0.988

Notebook: CSCCC(NC=O)C(=O)NC(C)C(=O)O (stereo not drawn) , normalized growth read as 0.987

Notebook: Cc1c(O)c(O)cc2c1CC=C1[C@@]2(C)CC[C@@]2(C)C3C[C@](C)(C(=O)O)CC[C@]3(C)CC[C@]12C (stereo partly drawn) , normalized growth read as 0.868

Notebook: "COc1cc(C(=O)NCc2ccc(OCCN(C)C)cc2)cc(OC)c1OC" , normalized growth read as 1.07

Notebook: "O=C(CCCCCCCCCCCCC1CCCC1)Nc1ccc(S(=O)(=O)c2ccc(NC(=O)CCCCCCCCCCCCC3CCCC3)cc2)cc1" , normalized growth read as 1.03

Notebook: CC(C)NCC(O)c1ccc(O)c(O)c1 (stereo not drawn) , normalized growth read as 1.01

Notebook: "C1CCN2C[C@@H]3C[C@H](CN4CCCC[C@@H]34)[C@H]2C1" , normalized growth read as 0.996

Notebook: CCCC(C)C1(CC)C(=O)N=C(S)NC1=O (stereo not drawn) , normalized growth read as 1.04

Notebook: "C=C[C@@H](C1=CC(=O)C(OC)=C(OC)C1=O)c1ccccc1" , normalized growth read as 0.331

Notebook: COC(=O)[C@]1(C)CC[C@]2(C)CC[C@]3(C)C4=CCc5c(cc(O)c(O)c5C)[C@]4(C)CC[C@@]3(C)C2C1 (stereo partly drawn) , normalized growth read as 0.953

Notebook: C=CC(C1=CC(=O)C(OC)=CC1=O)c1ccc(O)cc1 (stereo not drawn) , normalized growth read as 0.935

Notebook: COc1ccccc1OCCNCC(O)COc1cccc2[nH]c3ccccc3c12 (stereo not drawn) , normalized growth read as 0.993

Notebook: CCCC(C)C1(CC)C(=O)NC(=O)NC1=O (stereo not drawn) , normalized growth read as 1.04

Notebook: "c1ccc2c3c([nH]c2c1)CNCC3" , normalized growth read as 0.976

Notebook: "NC[C@H](O)c1ccc(O)c(O)c1" , normalized growth read as 1.01

Notebook: NC(=NCCC[C@H](N)C(=O)O)NC(CCC(=O)O)C(=O)O (stereo partly drawn) , normalized growth read as 1.06

Notebook: C=CC(C1=CC(=O)C=CC1=O)c1ccccc1 (stereo not drawn) , normalized growth read as 0.794

---

Assay: chemical genetic growth profiling, strain panel (AID 1159580);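 also: tested at 20 µM; growth read once vehicle control cultures reached saturation at 30 °C; 1 = growth at the plate median or of vehicle wells; lower values mean less growth of the strain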
Settings: S. cerevisiae deletion strains, growth OD, locus YER110C, active compounds read low
Among all 5,500 compounds or so, about 2,000 (36%) were called active. Not shown: some 18% with an inconclusive outcome. This is one part of the list.
Quantity: normalized growth
Returns: the value as a bare number; no unit string appended.

Notebook: C=CCC1(C(C)CCC)C(=O)N=C(S)NC1=O (stereo not given) , normalized growth read as 0.981

Notebook: CCCCC(CC)CN1CN(CC(CC)CCCC)CC(C)(N)C1 (stereo not given) , normalized growth read as 0.627

Notebook: C1CCN2CC3CC(CN4CCCCC34)C2C1 (stereo not given) , normalized growth read as 1.02

Notebook: CN(C)CCOC(C)(c1ccccc1)c1ccccn1 (stereo not given) , normalized growth read as 0.961

Notebook: CCCC(C)C1(CC)C(=O)N=C(S)NC1=O (stereo not given) , normalized growth read as 0.157

Notebook: O=C1CCCC2C3CC(CN12)[C@@H]1CCCCN1C3 (stereo not given in full) , normalized growth read as 0.977

Notebook: "O=C1C=CC2=C3c4cc(O)c(O)cc4C[C@@]3(O)COC2=C1" , normalized growth read as 0.986

Notebook: "CNc1ccccc1C(=O)O" , normalized growth read as 1.02

Notebook: CC(=O)c1c(O)c(C)c(O)c2c1OC1=CC(=O)C(C(C)=O)C(=O)C12C (stereo not given) , normalized growth read as 0.988

Notebook: "C=C(C)[C@H]1CC=C(C(=O)O)CC1" , normalized growth read as 0.925

Notebook: "COc1c2c(cc3c1OCO3)CCN(C)C2" , normalized growth read as 0.996

Notebook: "Cc1ccsc1/C=C/C1=NCCCN1C" , normalized growth read as 0.982

Notebook: "COc1ccc(C(Cl)=C(c2ccc(OC)cc2)c2ccc(OC)cc2)cc1" , normalized growth read as 1.03

Notebook: "CC(=O)Nc1ccc(S(=O)(=O)Nc2ccc([N+](=O)[O-])cc2)cc1" , normalized growth read as 0.997

Notebook: "COc1cc(OC)c2c(=O)c(-c3ccccc3)c(C)oc2c1OC" , normalized growth read as 0.994

Notebook: "N[C@@H](Cc1ccc(O)c(O)c1)C(=O)O" , normalized growth read as 0.993

Notebook: C[C@H]1[C@H]2CCC3C4CC=C5C[C@@H](N(C)C)CC[C@]5(C)C4CC[C@@]32CN1C (stereo not given in full) , normalized growth read as 0.99

Notebook: "Oc1c(I)cc(I)c2cccnc12" , normalized growth read as 0.115

Notebook: COC(=O)C[C@H]1C(C)(C)C(=O)[C@@H]2CC3=C4CC(=O)O[C@@H](c5ccoc5)[C@]4(C)CCC3[C@@]1(C)C2=O (stereo not given in full) , normalized growth read as 1.01

Notebook: "CC(=O)NCCCCCC(=O)O" , normalized growth read as 0.986

Notebook: "C=C[C@](C)(O)CCC=C(C)C" , normalized growth read as 1.01

Notebook: "CCN(CC)CCOc1ccc(/C(=C(\Cl)c2ccccc2)c2ccccc2)cc1" , normalized growth read as 0.0804

Notebook: "OC[C@@H]1CCCN2CCCC[C@H]12" , normalized growth read as 1.02

Notebook: "CCCCC1=NC2(CCCC2)C(=O)N1Cc1ccc(-c2ccccc2-c2nn[nH]n2)cc1" , normalized growth read as 0.977

Notebook: "Nc1ncn([C@@H]2O[C@H](CO)[C@@H](O)[C@H]2O)c(=O)n1" , normalized growth read as 1.01
